Biological target: Protein translocase subunit SecA (Escherichia coli (strain K12))
Experiment: Assay to Identify E. coli SecA ATPase Inhibitors
Type: functional
Set-up: scale not given: direction of the effect not stated beside the values
Conditions: 30 µM
Entries with a potency or affinity are not part of this list.
quantity.name: Percent Effect (%)
Give the value, in units of %, as a plain number.

[in] Hello, I am looking for reported Percent Effect with Protein translocase subunit SecA (Escherichia coli (strain K12)) for CCc1n[nH]c(C2CN(C(=O)c3nc(C)n4ccccc34)CCO2)n1 (stereo unspecified) . Could you help?
[out] -2.26

[in] Repeat with N#Cc1ccccc1OCCN1CCCC1Cn1cccn1 (stereo unspecified)
[out] -0.713

[in] Repeat with CN(Cc1cccc(F)c1)C(=O)CN1CCOC(Cn2cccn2)C1 (stereo unspecified)
[out] 0.367

[in] Repeat with CCOc1cc(CNC(=O)N2CCC(Cc3cnn(C)c3)C2)ccn1 (stereo unspecified)
[out] -2.64

[in] Repeat with Cc1nc2ccccn2c1CN(Cc1cccnc1)CC1CCCO1 (stereo unspecified)
[out] -1.83

[in] Repeat with "Cc1cc(CN2CCN(c3nn4cc(C)nc4s3)CC2)on1"
[out] -0.836

[in] Repeat with "Cc1cc(C(=O)N2CCc3ncc(CN4CCOCC4)n3CC2)no1"
[out] -4.01

[in] Repeat with "CCc1nc(C)c([C@H]2CN(C)C[C@@H]2C(=O)NCCc2cnccn2)[nH]1"
[out] -4.56

[in] Repeat with Cc1cnn(CC2CN(CC(=O)NCCc3cccs3)CCO2)c1 (stereo unspecified)
[out] -3.45

[in] Repeat with Cc1cnn(CC2CCCN2Cc2nnc(Cc3ccccc3)o2)c1 (stereo unspecified)
[out] -4.98

[in] Repeat with "CN(C)CC(=O)N1Cc2nc(C(=O)NCc3ccncc3)oc2C1"
[out] -0.101

* * *

Biological target: Tyrosyl-tRNA synthetase, putative (Trypanosoma cruzi (strain CL Brener)) (UniProt Q4DSP6)
Sequence (Q4DSP6 as listed by the source): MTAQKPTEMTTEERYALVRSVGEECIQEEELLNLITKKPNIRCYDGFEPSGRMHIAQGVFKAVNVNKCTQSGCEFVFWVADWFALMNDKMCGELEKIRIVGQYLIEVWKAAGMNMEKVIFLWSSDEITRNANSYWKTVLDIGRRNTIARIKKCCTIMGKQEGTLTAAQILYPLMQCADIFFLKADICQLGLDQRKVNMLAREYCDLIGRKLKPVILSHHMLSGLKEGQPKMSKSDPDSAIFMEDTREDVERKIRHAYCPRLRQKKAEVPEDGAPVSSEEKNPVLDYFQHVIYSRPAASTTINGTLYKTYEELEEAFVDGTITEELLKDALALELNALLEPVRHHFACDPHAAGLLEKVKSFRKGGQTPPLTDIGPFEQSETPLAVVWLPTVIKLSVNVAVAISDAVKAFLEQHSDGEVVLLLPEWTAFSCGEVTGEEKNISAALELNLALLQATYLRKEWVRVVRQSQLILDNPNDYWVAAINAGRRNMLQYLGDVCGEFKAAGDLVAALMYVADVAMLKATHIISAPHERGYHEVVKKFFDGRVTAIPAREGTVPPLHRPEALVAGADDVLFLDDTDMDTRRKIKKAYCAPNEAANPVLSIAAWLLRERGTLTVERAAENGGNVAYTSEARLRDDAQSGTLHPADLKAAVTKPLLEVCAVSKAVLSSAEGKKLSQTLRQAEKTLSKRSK
Experiment: Trypanosoma cruzi tyrosyl tRNA synthetase (TcYRS) _High Tyrosine SOP; also: in the data most compounds retested in dose-response had high values
Assay type: functional
Design: scale not given: direction of the effect not stated beside the values
Details: 30 µM
quantity.name: Percent Effect

[in] What does the record list as Percent Effect for Cc1ccc(C(NC(=O)[C@H]2CC[C@@H](O)CC2)c2cccnc2)cc1C (some centres not stated) ?
[out] 0.546%

[in] Repeat with Cc1nccn1CC1CCCN1S(=O)(=O)Cc1ccccc1F (configuration not stated)
[out] 4.43%

[in] Repeat with O=C(CN(Cc1cccnc1)CC1CCCO1)Nc1ccc(F)cc1 (configuration not stated)
[out] 0%

[in] Repeat with COCC1CC2(CCN(Cc3cnn(C)c3)CC2)CN1c1ncccn1 (configuration not stated)
[out] 7.53%

[in] Repeat with COc1ccc(F)cc1S(=O)(=O)NCC(c1cccn1C)N(C)C (configuration not stated)
[out] 7.53%

[in] Repeat with "CN(C)c1ccc(C(=O)NCC2(c3ccccc3)CCOCC2)cc1"
[out] 0%

[in] Repeat with "CCN(CC)c1ccc(NS(=O)(=O)c2cncc(F)c2)cn1"
[out] 6.25%

[in] Repeat with "Cc1cc(C)c2cc(CNCc3ccccc3)c3nn(C)c(=O)n3c2c1"
[out] 4.3%

[in] Repeat with "O=S(=O)(c1cccs1)N1CCCn2cnc(CN3CCCC3)c2C1"
[out] 4.17%

[in] Repeat with CNc1cc(C)nc(C2CN(Cc3ccc(C)nc3)CCO2)c1 (configuration not stated)
[out] 3.23%

[in] Repeat with "Cc1ccc(CN2CC[C@H]3C[C@@H](c4nc(C5CC5)cs4)O[C@@H]3C2)o1"
[out] 10.8%

[in] Repeat with "CCCn1nc2c(cc1=O)CN(CC(=O)Nc1ccncc1)CC2"
[out] 3.92%

[in] Repeat with "O=C(CN1CCC(c2ccnn2CCO)CC1)NCC1CC1"
[out] 8.37%

[in] Repeat with "CN(CCNC(=O)N1CCN(Cc2ccon2)CC1)C1CCCC1"
[out] 4.92%

[in] Repeat with "CCC1=N[C@@]2(CC[C@@H]3CN(C(=O)NC(C)C)C[C@@H]32)C(=O)N1C"
[out] 3.96%

[in] Repeat with "c1cnc(NCc2cncc3c2CCN(Cc2cccs2)C3)nc1"
[out] 3.19%

[in] Repeat with "Cn1cc(CN2CC[C@H]3OCC[C@@H](C(=O)N4CCCCO4)[C@@H]3C2)cn1"
[out] 2.12%

[in] Repeat with "Cc1cc(C(=O)N2CCC(c3nccn3CCCN(C)C)CC2)no1"
[out] 6.45%

[in] Repeat with CCn1ncc2c1CCCC2NCC1=Cc2ccccc2OC1 (configuration not stated)
[out] 4.17%

[in] Repeat with "O=C(C1CCC1)N1CCn2c(COc3ncccn3)nnc2C1"
[out] 0.526%

[in] Repeat with "CC(=O)N1CCN(CCNS(=O)(=O)c2ccc(C)c(F)c2)CC1"
[out] -1.06%

[in] Repeat with "COC[C@@]12CCO[C@@H]1CCN(C(=O)COc1ccccc1OC)C2"
[out] 5.21%

[in] Repeat with "CC(C)OCCCNC(=O)CS(=O)(=O)Cc1ccc(Cl)c(Cl)c1"
[out] 3.88%

[in] Repeat with c1cc(CN2CCCC(c3noc(C4CC4)n3)C2)no1 (configuration not stated)
[out] 3.45%

[in] Repeat with CN(C(=O)NCc1ccncc1)C1CCN(c2ccccc2)C1=O (configuration not stated)
[out] 6.37%

[in] Repeat with CCN(CC1CCCO1)C(=O)Nc1cc(OC)c(OC)cc1C (configuration not stated)
[out] 8.37%

[in] Repeat with "COc1cccc(S(=O)(=O)N2CCn3cnc(COCC4CC4)c3C2)c1"
[out] 3.12%

[in] Repeat with "c1ccc(CN2CCc3ncnc(-c4ccsc4)c3CC2)nc1"
[out] 2.16%

[in] Repeat with "Cc1nc(N2CCOCC2)nc2c1CCN(C(=O)NC1CCCC1)CC2"
[out] -2.12%

[in] Repeat with "O=C(c1ccnnc1)N1CCN2C[C@H](Oc3cccc(F)c3)C[C@H]2C1"
[out] -2.08%

[in] Repeat with Cc1ccc(CCN2CCC(N(C)Cc3noc(C4CC4)n3)C2)cc1 (configuration not stated)
[out] 5.26%

[in] Repeat with CN(C)CC1CN(Cc2ccc3c(c2)OCO3)Cc2nccn2C1 (configuration not stated)
[out] 0.526%

[in] Repeat with CC(C)CC(CNC(=O)NCc1cc[nH]n1)N1CCOCC1 (configuration not stated)
[out] 4.31%

[in] Repeat with O=C1CC(c2cccnc2)C2(CCN(C(=O)c3ccncc3)CC2)N1 (configuration not stated)
[out] 4.32%

[in] Repeat with "CCc1nc(CN2CCN(C(=O)CCc3ccccc3)CC2)cs1"
[out] -1.04%

[in] Repeat with "O=C(CCc1ccccn1)N1CCN(C(=O)CC2CCCCC2)CC1"
[out] 5.71%

[in] Repeat with "Cc1ccc(C2(CN3CCCC3)CCNCC2)nc1"
[out] 10.1%

[in] Repeat with COc1c(CNC2CCc3cc(F)ccc32)c(C)nn1C (configuration not stated)
[out] 3.92%

[in] Repeat with "CCS(=O)(=O)N1C[C@@H](OCc2cccnc2)[C@H]2OCCC[C@H]21"
[out] 4.74%

[in] Repeat with "O=C(COc1coc(CN2CCCCC2)cc1=O)Nc1ccc(Cl)cc1"
[out] 6.35%

[in] Repeat with CCCc1noc(CN2CCCC2c2c(C)nn(C)c2OC)n1 (configuration not stated)
[out] -2.63%

[in] Repeat with "CC(C)(C)n1cc(C(=O)N2CCN(Cc3ccsc3)CC2)cn1"
[out] 6.37%

[in] Repeat with "Fc1ccccc1-c1noc2c1CN(CC1CC1)CC2"
[out] 7.53%

[in] Repeat with "Cc1ncc2c(n1)CN(Cc1nnc(-c3occc3C)o1)CC2"
[out] 22.8%

[in] Repeat with "COCCO[C@H]1CCN(C(=O)C2CCOCC2)[C@H]1Cc1ccncc1"
[out] 2.13%

[in] Repeat with "Cc1nn(C)c2c(NCc3cccnc3)nc(C3CC3)nc12"
[out] 1.07%

[in] Repeat with Cc1cc(N2CCN(Cc3ccccc3)CC(O)C2)cc(C)n1 (configuration not stated)
[out] -0.529%
